# target_desc: PAP complex: preformed immune complex of peroxidase and rabbit anti-peroxidase IgG (horseradish) (UniProt P00433)
# procedure_text: reverse ELISA competition: PAP pre-incubated with peptide, then on plate coated with FcγIIb; signal is PAP left bound to the receptor
property_measured: OD405
Reply with the number and its unit after it.

// known answers, use as guide
                                     binder  property_measured  experimental_result
0  APPCAWHLGELVWCT [Peptide … (SEQ ID NO:14)]              OD405          0.562 OD405
1   DCAFHLGELVWCT [Peptide … (SEQ ID NO:3)]              OD405           0.51 OD405
2  APPDCAWHLGELVWCT [Peptide … (SEQ ID NO:20)]              OD405          0.496 OD405
3  APPCAFHLGELVWCT [Peptide … (SEQ ID NO:18)]              OD405           0.38 OD405

Proceed to the following item.
Which OD405 value is on record for APPCARHLGELVWCT [Peptide … (SEQ ID NO:16)] ?
0.768 OD405
